- System: MOLT-4 leukemia
- assay notes: NCI-60 one-dose screen, 48 h (100 = growth as untreated, 0 = no growth, -100 = all killed)
- condition parameters: 10 µM unless noted
- Experimental: Growth inhibition of the MOLT-4 human tumor cell line is measured as a screen for anti-cancer activity. Cells are grown in 96 well plates and exposed to the test compound for 48 hours. Compounds are tested at a single concentration, which is 10^-5 M for most compounds. The reported endpoint is percent growth (GI% or GIPRCNT), where numbers from 0 - 100% represent growth inhibition, and numbers from -100% - 0 represent cell death. For example, a value of 40 represents 60% growth inhibition. […]
Compounds without any hit were thinned out: in the full panel of roughly 83,000, 20% have a hit.
Consider the following molecules and their measured growth readings.
measure: growth (%)

[[record]]
molecule = "O=c1c2cc(F)ccc2sc2c(N3CCNCC3)nc3ccc(F)cc3c12"
experimental_result = -36.5

[[record]]
molecule = "COc1cccc(-c2nc(-c3ccc(NC(=O)c4ccccc4)cc3)[nH]c2-c2ccnc(Br)c2)c1"
experimental_result = 15.1

[[record]]
molecule = "COc1ccc([C@H]2c3cc(OC)c(OC)cc3C=C(C=O)C2CO)cc1OC (some centres undefined)"
experimental_result = 49.5

[[record]]
molecule = "O=C(O)CCC/C=C\\C[C@H]1C=CC(=O)/C1=C/C[C@@H](O)CCc1cccc(C(F)(F)F)c1"
experimental_result = -8.07

[[record]]
molecule = "CCCCCCn1c(-c2ccc(C(=O)O/N=C(\\N)c3ccc4ccccc4c3)cc2)nc(-c2ccccc2)c1-c1ccccc1"
experimental_result = 41.2

[[record]]
molecule = "COc1ccc2c(c1OC)C(=O)O[C@H]2[C@H]1c2c(cc3c(c2OC)OCO3)CCN1C"
experimental_result = 116

[[record]]
molecule = "Cc1nc2cnc(N)c(C#Cc3cncc(C(=O)Nc4ccc(CN5CCN(C)CC5)c(C(F)(F)F)c4)c3)c2nc1C"
experimental_result = 8.72

[[record]]
molecule = "O=c1cc(SCc2ccccc2)nc[nH]1"
experimental_result = 89.4

[[record]]
molecule = "NCCCNc1nc2ccccc2c2c(=O)c3cc(OC(F)(F)F)ccc3sc12"
experimental_result = -39.5


* * *

- System: SK-MEL-2 melanoma
- assay notes: NCI-60 one-dose screen, 48 h (100 = growth as untreated, 0 = no growth, -100 = all killed)
- condition parameters: 10 µM unless noted
The panel holds about 83,000 compounds, 20% with a hit somewhere; the sample as a whole holds those more often.
measure: growth (%)

[[record]]
molecule = "Cc1ccc(-c2nc(N3CCN(C(=O)Nc4ccc(Cl)c(C(F)(F)F)c4)CC3)c3ccccc3n2)cc1"
experimental_result = 96.5

[[record]]
molecule = "COc1ccc(-c2nc(NN)c3c(C)nn(-c4ccc(F)cc4)c3n2)cc1"
experimental_result = 24.1

[[record]]
molecule = "NCCOc1ncccc1/C=C1\\C2C=CC=CC2C2C=CC(F)=CC12 (centres undefined)"
experimental_result = 113

[[record]]
molecule = "O=C1NC(=O)C(c2ccccc2)(c2ccccc2)N1Cc1cn(-c2c3ccccc3nc3ccccc23)nn1"
experimental_result = 97.9

[[record]]
molecule = "C[C@]12CC[C@@H]3c4cc(OC(F)F)c(OS(N)(=O)=O)cc4CC[C@H]3[C@@H]1CC[C@@H]2O"
experimental_result = 46.3

[[record]]
molecule = "O=C(O)c1cn(C2CC2)c2cc(N3CCN(C(=O)Nc4nc(-c5ccc(Cl)cc5)cs4)CC3)c(F)cc2c1=O"
experimental_result = -18.9

[[record]]
molecule = "CN(C)CCN1CCN(c2ncccc2C2Nc3ccccc3-n3cccc32)CC1 (centres undefined)"
experimental_result = 124

[[record]]
molecule = "COc1cc(CCC[P+](c2ccccc2)(c2ccccc2)c2ccccc2)c(OC)c(OC)c1OC"
experimental_result = 80.5

[[record]]
molecule = "Cc1nc2ccccc2n1-c1ncnc2c1CC(C)c1ccccc1N2C (centres undefined)"
experimental_result = 78.3


* * *

- Tested on: NCI-H522 lung
- assay notes: NCI-60 one-dose screen, 48 h
- condition parameters: 10 µM unless noted
Compounds without any hit were thinned out: in the full panel of roughly 83,000, 20% have a hit. The source made the active and inactive calls. How the source made its calls: active means growth percent below 10; inactive means the rest.
Outcome codes: 1.0 for active, 0.0 for inactive

[[record]]
compound = "COc1ccc(C2C(C#N)=C(N)Oc3c2sc2c(C)cccc32)cc1 (centres undefined)"
label_class = 0.0

[[record]]
compound = "CCN(CC)Cc1cc(Nc2c3ccc(Cl)cc3nc3ccc(OC)cc23)ccc1O"
label_class = 0.0

[[record]]
compound = "c1ccc(CO[C@H]2CO[C@H]3[C@@H]2OC[C@@H]3Oc2ccc(Nc3ncnc4ccsc34)cc2)cc1"
label_class = 0.0

[[record]]
compound = "COc1cccc(Oc2ccccc2NC(=O)CNC(=O)c2cccc3ccccc23)c1"
label_class = 1.0


* * *

- Tested on: TK-10 renal
- assay notes: NCI-60 one-dose screen, 48 h (100 = growth as untreated, 0 = no growth, -100 = all killed)
- condition parameters: 10 µM unless noted
About 83,000 compounds went through this panel and 20% of them were active in at least one assay; those are over-represented in the sample as a whole.
measure: growth (%)

[[record]]
compound = "NC(=O)Nc1ccc2ncnc(Nc3ccc(Cl)cc3)c2c1"
experimental_result = 26.5

[[record]]
compound = "N#Cc1c(-c2ccccc2)nc(SCC(=O)Nc2nc(-c3ccc(Cl)cc3)cs2)[nH]c1=O"
experimental_result = 110

[[record]]
compound = "CC(=O)c1ccc(Nc2nc(C(C)=O)c(C)s2)cc1"
experimental_result = 112

[[record]]
compound = "CN(C)c1ccc2nc3ccc(=[N+](C)C)c([N+](=O)[O-])c-3sc2c1"
experimental_result = 71.3

[[record]]
compound = "Cc1c(C(=O)/C=C/Nc2c(Cl)cc(S(N)(=O)=O)cc2Cl)sc2nc3ccccc3n12"
experimental_result = 111

[[record]]
compound = "CCCCCCCCCCCCCCCCCC1OCC(COC(=O)O[C@]2(CC)C(=O)OCc3c2cc2n(c3=O)Cc3cc4ccccc4nc3-2)O1 (stereo not given in full)"
experimental_result = 95.5

[[record]]
compound = "O=c1c2cc(F)ccc2sc2c(N3CCCCC3)nc3ccccc3c12"
experimental_result = 109

[[record]]
compound = "Cc1ccc(C(=O)NCCNc2nccc(-c3c(-c4cccc(F)c4)nc4sccn34)n2)cc1"
experimental_result = 75.6

[[record]]
compound = "COC(=O)c1ccc2[nH]c(O)c(C(=Nc3ccc(N(C)C(=O)CN4CCN(C)CC4)cc3)c3ccccc3)c2c1"
experimental_result = 51.6

[[record]]
compound = "CNCCCNc1nc2ccccc2c2c(=O)c3cc(OC)ccc3sc12"
experimental_result = 98.8


* * *

- Tested on: LOX IMVI melanoma
- assay notes: NCI-60 one-dose screen, 48 h
- condition parameters: 10 µM unless noted
The panel holds about 83,000 compounds, 20% with a hit somewhere; the sample as a whole holds those more often. Activity calls are given as the source filed them. Rule for the calls: active = growth percent below 10; inactive = the rest.
Outcome codes: yes (1) = active, no (0) = inactive

[[record]]
compound = "CCCCCCCCCCCCCCCCCC1OCC(COC(=O)O[C@]2(CC)C(=O)OCc3c2cc2n(c3=O)Cc3cc4ccccc4nc3-2)O1 (some centres undefined)"
label_class = "no (0)"

[[record]]
compound = "Cc1cc(=O)oc2cc(OC(=O)CN3CCN(C)CC3)ccc12"
label_class = "no (0)"

[[record]]
compound = "CCCCCCn1c(-c2ccc(C(=O)O/N=C(\\N)c3ccc(OC)cc3)cc2)nc(-c2ccccc2)c1-c1ccccc1"
label_class = "yes (1)"

[[record]]
compound = "C/C(=C(/c1ccccc1)c1ccc(N2C(=O)c3cccc4c(N5CCN(C)CC5)ccc(c34)C2=O)cc1)c1ccccc1"
label_class = "no (0)"

[[record]]
compound = "COc1nc2ccc(C)cc2cc1-c1nc2c(cnn2-c2ccccc2)c(=O)[nH]1"
label_class = "no (0)"

[[record]]
compound = "COc1ccc(/C=C/c2c(C(=O)/C=C/c3ccc(C(F)(F)F)cc3)c(C)nc3ccccc23)cc1"
label_class = "yes (1)"

[[record]]
compound = "CCN1C(=O)N(CC)C2Nn3c(s/c(=C4\\C(=O)N(CC(C)C)c5ccccc54)c3=O)=NC21 (centres undefined)"
label_class = "no (0)"

[[record]]
compound = "Oc1ccc(CCl)c2cccnc12"
label_class = "no (0)"

[[record]]
compound = "N#C/C(=C\\c1cccc2cnccc12)n1nnc2cccc(F)c21"
label_class = "no (0)"

[[record]]
compound = "Cc1ccc2nc(NC(=O)CSc3nc(Cl)c(C#N)c(-c4ccccc4)n3)sc2c1"
label_class = "no (0)"

[[record]]
compound = "COc1cc(C(=O)/C=C/c2sc(Cl)nc2Cl)cc(OC)c1OC"
label_class = "yes (1)"

[[record]]
compound = "COc1ccc(C2=Nn3c(nnc3-c3cc(Cl)cc(Cl)c3Cl)SC2)cc1"
label_class = "no (0)"

[[record]]
compound = "CC(=O)OC[C@H]1OC(Sc2sc(C(=O)c3ccc(Cl)cc3)c(N)c2-c2nc3ccccc3s2)[C@H](OC(C)=O)[C@@H](OC(C)=O)[C@@H]1OC(C)=O (some centres undefined)"
label_class = "no (0)"

[[record]]
compound = "CCc1cccc2c3c(sc12)C(c1ccc(F)cc1)C(C#N)=C(N)O3 (centres undefined)"
label_class = "no (0)"

[[record]]
compound = "CCCCCCNC(=O)Oc1ccc(/C(=C(\\C)c2ccc(Cl)cc2)c2ccc(OCCN(CC)CC)cc2)cc1"
label_class = "no (0)"

[[record]]
compound = "CN1CCN(c2ccc(-c3cc4c(Nc5ccc(F)c(Cl)c5)ncnn4c3)cc2)CC1"
label_class = "yes (1)"

[[record]]
compound = "CCCCn1c(-c2ccc(C(=O)O/N=C(\\N)c3ccc(OC)cc3)cc2)nc(-c2ccccc2)c1-c1ccccc1"
label_class = "yes (1)"

[[record]]
compound = "O=C(N/N=C/c1c(Cl)cccc1Cl)c1ccc(C(F)(F)F)nc1Nc1cccc(C(F)(F)F)c1"
label_class = "yes (1)"

[[record]]
compound = "COc1cc(CCCO)c(OC)c(OC)c1OC"
label_class = "no (0)"

[[record]]
compound = "Cc1ccccc1C(=O)NN"
label_class = "no (0)"

[[record]]
compound = "C#Cc1cccc(NC(=O)c2ccc(NC(=O)C=C)cc2)c1"
label_class = "no (0)"

[[record]]
compound = "Oc1ccc(C#CCOc2ccccc2)cc1CNCCN(Cc1ccccn1)Cc1ccccn1"
label_class = "yes (1)"

[[record]]
compound = "O=C(Nc1nc2ccc(F)cc2s1)c1cccnc1Nc1ccc(Cl)cc1Cl"
label_class = "no (0)"

[[record]]
compound = "COc1ccc([C@H]2c3cc(OC)c(OC)cc3C=C(C=O)C2CO)cc1OC (some centres undefined)"
label_class = "no (0)"

[[record]]
compound = "CN1CCN(c2ccc(-c3cnc4c(-c5csc6ccccc56)cnn4c3)cc2)CC1"
label_class = "yes (1)"

[[record]]
compound = "CC(=O)Oc1ccccc1C(=O)N=C1[Se]CCCN1C(=O)c1ccccc1OC(C)=O"
label_class = "yes (1)"

[[record]]
compound = "N#CC1=C(N)Oc2c(sc3c(Br)cccc23)C1c1ccc(Br)cc1 (centres undefined)"
label_class = "no (0)"

[[record]]
compound = "NCCCNc1nc2ccccc2c2c(=O)c3cccc(F)c3sc12"
label_class = "yes (1)"

[[record]]
compound = "Cc1ccc(-c2nc(N3CCN(C(=O)c4ccc(OC(F)(F)F)cc4)CC3)c3ccccc3n2)cc1"
label_class = "no (0)"

[[record]]
compound = "Nc1nc(Cl)cc(=O)n1Cc1ccccc1"
label_class = "no (0)"

[[record]]
compound = "COc1cc(C(=O)/C=C/c2ccc(OCCCCCC[P+](c3ccccc3)(c3ccccc3)c3ccccc3)cc2)cc(OC)c1OC"
label_class = "yes (1)"

[[record]]
compound = "CS(=O)(=O)Nc1cc(-c2ccc3ncnc(Nc4cccc(Cl)c4F)c3c2)cnc1Cl"
label_class = "yes (1)"

[[record]]
compound = "CN1CCN(CC(=O)N2c3cccc4cccc(c34)N(C(=O)CN3CCN(C)CC3)C2c2cn(-c3ccccc3)nc2-c2cccc([N+](=O)[O-])c2)CC1"
label_class = "yes (1)"

[[record]]
compound = "CCc1cccc2c3c(sc12)C(c1ccc(Cl)cc1)C(C#N)=C(N)O3 (centres undefined)"
label_class = "no (0)"

[[record]]
compound = "Cn1cc(-c2cc3ncnc(Nc4ccc(CC(=O)Nc5cc(C(C)(C)C)on5)cc4)c3s2)cn1"
label_class = "no (0)"

[[record]]
compound = "CCOC(=O)c1cn2ncnc(Oc3ccc(NC(=O)NCCN(C)C)c(Cl)c3)c2c1C"
label_class = "no (0)"

[[record]]
compound = "COc1ccc(/C=C2\\Oc3cc(OCCN4CCC(Cc5ccccc5)CC4)ccc3C2=O)cc1OC"
label_class = "yes (1)"

[[record]]
compound = "Cc1ccc(C(CC(=O)O)c2c(C)[nH][nH]c2=O)cc1 (centres undefined)"
label_class = "no (0)"

[[record]]
compound = "CCc1cccc2c1S/C(=C/c1ccc(Cl)cc1)C2=O"
label_class = "no (0)"

